Readout kind: melting point

Note to self: melting point recorded for Cc1cc(C(=O)NC2CC2)ccc1N1CCN(Cc2cnc3c(c2)NC(=O)[C@@H]2CCCN32)CC1 [Compound 142] was 226.7 to 233.5 °C

Note to self: melting point recorded for N#Cc1ccc(N2CCN(Cc3cnc4c(c3)NC(=O)[C@@H]3CCCN43)CC2)cc1F [Compound 21] was 251 to 255 °C

Note to self: melting point recorded for N#Cc1ccc(N2CCN(Cc3cnc4c(c3)NC(=O)[C@@H]3CCCN43)CC2)c(Cl)c1 [Compound 16] was 213 to 215 °C

Note to self: melting point recorded for O=C1Nc2cc(CN3CC=C(c4ccc(Cl)cc4)CC3)cnc2N2CCC[C@@H]12 [Compound 2] was 234 to 235 °C

Note to self: melting point recorded for O=C1Nc2cc(CN3CCN(c4ccc(Cl)cc4)CC3)cnc2N2CCC[C@@H]12 [Compound 1] was 265 to 268 °C

====

Target: catalytic domain of Human PARP (Homo sapiens, UniProt P09874)
Construct: The catalytic domain of Human PARP was cloned and prepared; made in house
Sequence (P09874 788-1014 limits assumed): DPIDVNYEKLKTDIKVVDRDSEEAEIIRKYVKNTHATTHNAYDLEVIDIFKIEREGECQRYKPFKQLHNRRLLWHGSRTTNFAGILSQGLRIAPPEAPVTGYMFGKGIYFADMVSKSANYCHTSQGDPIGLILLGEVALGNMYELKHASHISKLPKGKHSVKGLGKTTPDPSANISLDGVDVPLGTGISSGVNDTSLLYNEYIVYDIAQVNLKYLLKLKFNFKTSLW
Experiment: Biacore surface plasmon resonance affinity assay (dissociation constant KD)
Format: binding
Conditions: pKD=-log(KD), KD in molar concentration; Biacore T100, 25° C.
Below is a list of entries, each paired with its recorded Kd value.

In [3]: df
Out[3]:
                                   molecule  result
0  O=C1Nc2cc(CN3CC=C(c4ccc(Cl)cc4)CC3)cnc2N2CCCCC12 (stereo not drawn)  ≥ 1 µM

Note to self: Kd recorded for CCN1c2ncc(CN3CC=C(c4ccc(Cl)cc4)CC3)cc2NC(=O)[C@@H]1C was 0.0316 to 0.794 µM

Note to self: Kd recorded for CC(C)N1c2ncc(CN3CC=C(c4ccc(Cl)cc4)CC3)cc2NC(=O)[C@@H]1C was ≥ 1 µM

Note to self: Kd recorded for N#Cc1ccc(N2CCN(Cc3cnc4c(c3)NC(=O)[C@@H]3CCCN43)CC2)nc1 was < 0.0316 µM

Note to self: Kd recorded for CN1CC(=O)Nc2cc(CN3CC=C(c4ccc(Cl)cc4)CC3)cnc21 was < 0.0316 µM

Note to self: Kd recorded for O=C1Nc2cc(CN3CC=C(c4ccc(Cl)cc4)CC3)cnc2N2CCC[C@@H]12 was < 0.0316 µM

Note to self: Kd recorded for CN1CC(=O)Nc2cc(CN3CCC(c4ccc(Cl)cc4)CC3)cnc21 was 0.0316 to 0.794 µM

Note to self: Kd recorded for CC(C)N1c2ncc(CN3CCN(c4ccc(Cl)cc4)CC3)cc2NC(=O)[C@@H]1C was ≥ 1 µM

Note to self: Kd recorded for O=C1Nc2cc(CN3CCC(c4ccc(Cl)cc4)CC3)cnc2N2CCC[C@@H]12 was 0.0316 to 0.794 µM

====

Readout kind: melting point

Worked cases, answers included:
>>> df
                                   compound   readout_kind         result
0  O=C(NC1CC1)c1ccc(N2CCN(Cc3cnc4c(c3)NC(=O)[C@@H]3CCCN43)CC2)cc1 [Compound 13]  melting point  265 to 268 °C
1  N#Cc1cc(F)c(N2CCN(Cc3cnc4c(c3)NC(=O)[C@@H]3CCCN43)CC2)cc1F [Compound 17]  melting point  224 to 227 °C

Alright, here's another compound for you.
Note to self: melting point recorded for N#Cc1ccc(N2CCN(Cc3cnc4c(c3)NC(=O)[C@@H]3CCCN43)CC2)nc1 [Compound 5] was 252 to 256 °C

Hello, the source for this data is patent US9187497B2, in case you need it.
